- Test system: MEK phosphorylation (S218 and S222)
- method: Analysis of B-Raf-mediated MEK phosphorylation (Alphascreen SureFire Phospho-MEK)
- Type: cell-based, human
- condition_set: read-out: % Inhibition of MEK phosphorylation; 10 nM; human melanoma cells, 1 h; read-out: % Inhibition of MBK phosphorylation
Listing of entries alongside the reported inhibition at 0.01 µM.
State just the number; it will be interpreted in %.

Worked examples, 2 molecules total:
* Cc1c(=O)n(C)c(Nc2ccc(I)cc2F)c2c(=O)n(C)c(=O)n(-c3cccc(OCC(N)=O)c3)c12 | 76.4
* Cc1c(=O)n(C)c(Nc2ccc(I)cc2F)c2c(=O)[nH]c(=O)n(-c3cccc(C(=O)NC4CC4)c3)c12 | 93.4

Now take the following molecule into account.
Query block: What measured inhibition at 0.01 µM goes with Cc1c(=O)n(C)c(Nc2ccc(I)cc2F)c2c(=O)[nH]c(=O)n(-c3cccc(OCC(N)=O)c3)c12 ?
Result block: 93.3
